- study_target: human norepinephrine transporter (Homo sapiens, UniProt P23975)
- Construct: host or cells: HEK-293
- Sequence (P23975 whole entry): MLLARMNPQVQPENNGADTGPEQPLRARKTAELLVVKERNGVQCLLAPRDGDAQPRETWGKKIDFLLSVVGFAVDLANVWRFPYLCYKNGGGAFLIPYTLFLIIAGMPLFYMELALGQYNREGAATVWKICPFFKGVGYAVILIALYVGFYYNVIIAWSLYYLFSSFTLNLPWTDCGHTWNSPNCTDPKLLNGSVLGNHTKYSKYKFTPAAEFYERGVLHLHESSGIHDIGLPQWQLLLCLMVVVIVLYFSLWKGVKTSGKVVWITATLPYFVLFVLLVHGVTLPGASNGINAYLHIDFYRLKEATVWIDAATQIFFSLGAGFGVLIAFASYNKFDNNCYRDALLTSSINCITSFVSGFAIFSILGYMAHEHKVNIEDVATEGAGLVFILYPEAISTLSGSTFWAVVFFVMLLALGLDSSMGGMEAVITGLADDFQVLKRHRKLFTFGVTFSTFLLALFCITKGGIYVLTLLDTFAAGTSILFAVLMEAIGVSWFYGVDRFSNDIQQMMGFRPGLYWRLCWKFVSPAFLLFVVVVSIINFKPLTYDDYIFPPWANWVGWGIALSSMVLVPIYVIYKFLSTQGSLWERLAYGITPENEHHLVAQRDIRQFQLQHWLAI
- assay_procedure: hNET receptor binding ([125I]-RTI-55 radioligand binding)
- details: membranes of HEK-293 cells transfected with human norepinephrine transporter, IC50 converted to Ki by Cheng-Prusoff, read-out: hNET (Ki)
parameter_measured: pKi
pKi here: minus log base 10 of the concentration, concentration in moles per litre.

Solved cases (6 shown):
[[record]]
compound = "Fc1ccccc1-c1ccccc1O[C@@H](c1ccccc1)[C@@H]1CNCCO1"
parameter_measured = "pKi"
readout_value = 7.85

[[record]]
compound = "FCc1ccccc1OC(c1ccccc1)[C@@H]1CNCCO1 (some centres unmarked)"
parameter_measured = "pKi"
readout_value = 7.85

[[record]]
compound = "CCOc1ccccc1OC(c1ccc(F)cc1)[C@H]1CNCCO1 (some centres unmarked)"
parameter_measured = "pKi"
readout_value = 7.96

[[record]]
compound = "N#Cc1ccccc1O[C@@H](c1ccccn1)[C@@H]1CNCCO1 [Example 125]"
parameter_measured = "pKi"
readout_value = 7.96

[[record]]
compound = "COc1ncccc1O[C@@H](c1ccccc1)[C@@H]1CNCCO1"
parameter_measured = "pKi"
readout_value = 8.10

[[record]]
compound = "Cc1ccccc1O[C@@H](c1ccccc1)[C@@H]1CNCCO1"
parameter_measured = "pKi"
readout_value = 8.05


### Prompt // query pKi value for entry c1ccc(C(Oc2ccc3ccoc3c2)C2CNCCO2)cc1 (stereo in doubt)
### Response 8.00

### Prompt // query pKi value for entry `Fc1cccc(OC(F)(F)F)c1O[C@@H](c1ccccc1)[C@@H]1CNCCO1`
### Response 8.05
